This listing pairs compounds with measured TGI.
system: XF 498 CNS; assay: NCI tumour cell line growth inhibition, 48 h
Answer with a number only, understood to be in µM.

Prompt: Looking for the measured TGI of CCCCCCCCCCCC(=O)c1c(O)cccc1O , can you help?
Response: 32.4

More entries:
Prompt: Looking for the measured TGI of COc1ccc(C2c3cc4c(cc3OC(O)(CO)C2C(=O)O)OCO4)cc1 (configuration not stated) (tested in a mixture with another compound) , can you help?
Response: 16.6

Prompt: Looking for the measured TGI of Cc1nc(Nc2ccccc2)sc1C(=O)NNc1ccc([N+](=O)[O-])cc1[N+](=O)[O-] , can you help?
Response: 55.3
